systemName: T1, HLA-A*24:02 (human)
T1 construct: whole, on cells; Empty class I molecule on T2-A24 cells
assay: T2-A24 MHC class I stabilization, flow cytometry, anti-HLA-A24 17A10-FITC, peptide 100 ug/mL;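 further: peptide exposure stabilizes otherwise empty class I molecules on T2 cell surfaces, so surface class I level reflects how strongly the peptide binds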
property: MFI (solvent ratio)

| binder | result |
| --- | --- |
| DFYHSLFTV [As368_9] | 1.1 ratio to solvent |
| IQYVLKVTSV [As289_10] | 1.5 ratio to solvent |
| RMLLDYKAEV [As236_10] | 1 ratio to solvent |
| AAQPEICYQLL [As301_11] | 2 ratio to solvent |
| AFYVEHGAIF [As192_10] | 2.2 ratio to solvent |
| DFGKLKAIL [As29_9] | 1 ratio to solvent |

(Q) Provide only the value of recorded MFI (solvent ratio) for LMDINGCAAI [As280_10]
(A) 1.2 ratio to solvent

(Q) Hello, please tell me recorded MFI (solvent ratio) for this one: LVLLDHNATI [As92_10]
(A) 1.1 ratio to solvent
